The values you see were collected from PubChem BioAssay.

Target: Voltage-gated potassium channel subunit beta-2 (Rattus norvegicus) (UniProt P62483)
Sequence (P62483 whole entry, looked up): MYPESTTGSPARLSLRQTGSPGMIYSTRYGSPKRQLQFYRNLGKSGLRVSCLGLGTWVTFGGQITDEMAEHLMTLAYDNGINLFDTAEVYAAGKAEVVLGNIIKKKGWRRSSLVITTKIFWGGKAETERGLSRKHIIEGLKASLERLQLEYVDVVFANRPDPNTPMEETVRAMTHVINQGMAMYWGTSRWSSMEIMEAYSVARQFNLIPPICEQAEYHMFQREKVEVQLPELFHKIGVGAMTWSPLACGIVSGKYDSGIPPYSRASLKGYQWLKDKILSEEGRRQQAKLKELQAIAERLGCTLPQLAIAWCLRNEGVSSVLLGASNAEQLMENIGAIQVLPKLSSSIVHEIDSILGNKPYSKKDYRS
Assay: KvBeta enzyme negative modulators, primary screen, biochemical, NADPH fluorescence (AID 622);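 also: slope of raw intensity against log time taken from 70 to 1610 s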
Conditions: recombinant KvBeta, 4-cyanobenzaldehyde reduction, at 10 µM
The source made the active and inactive calls.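 The calls were made as follows: active = fluorescence slope higher than the sample average by over 3 SD (cut at about -0.22 in these data, passing the limit was not always enough); inactive = the rest.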
Classes used: 1 (yes) for active, 0 (no) for inactive

[[record]]
molecule = "Cc1ccc(-c2nc3ncccc3o2)cc1NC(=O)c1ccco1"
label = "0 (no)"

[[record]]
molecule = "CCOC(=O)N1CCN(CC(O)COc2ccccc2C(C)CC)CC1 (stereo unspecified)"
label = "0 (no)"

[[record]]
molecule = "Cc1cccc(-c2nc(C#N)c(NC3CCCCC3)o2)c1"
label = "0 (no)"

[[record]]
molecule = "Cc1ccc(-c2nc3ccccc3[nH]2)s1"
label = "0 (no)"

[[record]]
molecule = "CCC(=O)NC1(C(F)(F)F)C(=O)Nc2c1c(=O)[nH]c(=O)n2Cc1ccco1 (stereo unspecified)"
label = "0 (no)"

[[record]]
molecule = "Cc1ccc2cc(CN(Cc3ccc4c(c3)OCO4)Cc3nnnn3Cc3ccco3)c(=O)[nH]c2c1C"
label = "0 (no)"

[[record]]
molecule = "CCOc1ccc(N=C2C(=O)N(CN3CCOCC3)c3ccccc32)cc1"
label = "0 (no)"

[[record]]
molecule = "O=C(COc1ccc(Cl)cc1)NCc1nnc(SCC(=O)Nc2ccc3c(c2)OCCO3)o1"
label = "0 (no)"

[[record]]
molecule = "Cc1ccc(C(=O)C2C(c3cccs3)NC(=O)NC2(O)C(F)(F)F)cc1 (stereo unspecified)"
label = "0 (no)"

[[record]]
molecule = "CCOc1cc(S(=O)(=O)Nc2ccccn2)ccc1F"
label = "0 (no)"

[[record]]
molecule = "CCOc1ccc(C2C=C(c3ccc(F)cc3)Nc3ncnn32)cc1 (stereo unspecified)"
label = "1 (yes)"


###

Experiment: inhibitors of Chlamydomonas gravitaxis, primary screen, whole organism, Chlamydomonas reinhardtii, WT vs cilia-less mutant, absorbance, 96-well (AID 463189);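 also: 0% = wild type cc124 cells in DMSO and 100% = ciliumless bld1 mutant cells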
Details: OD600 absorbance, 2 days, at 10 µM, hits give high values
Each entry below carries its reported inhibition.
ATTRIBUTE_MEASURED: inhibition (%)

[[record]]
compound = "CCSc1nnc(NC(=O)C(C)(C(F)(F)F)C(F)(F)F)s1"
meas_value = 2.14

[[record]]
compound = "Cc1cc(C)nc(N(C#N)CN2C(=O)c3ccccc3C2=O)n1"
meas_value = 30.7

[[record]]
compound = "c1ccc2c(c1)[nH]c1c(N3CCN(C4CCCCC4)CC3)ncnc12"
meas_value = 18.4

[[record]]
compound = "CCN(CC)CCN1C(=O)C(=O)/C(=C(/O)c2c(C)[nH]c(C(=O)OC)c2C)C1c1cccc(OC)c1 (stereo not drawn)"
meas_value = 16.5

[[record]]
compound = "Cc1ccccc1N1C(=O)CC(Sc2nnc(-c3ccccc3)o2)C1=O (stereo not drawn)"
meas_value = 57.7

[[record]]
compound = "CN1CCc2c(C#N)c(N3CCCCC3)nc(NCc3ccccc3)c2C1"
meas_value = 7.09

[[record]]
compound = "COc1ccc(C(=O)c2ccc(N3CCOCC3)cc2)c(OC)c1"
meas_value = -11.4

[[record]]
compound = "CCNc1sc(C(=O)c2cccs2)c(N)c1C#N"
meas_value = 24.6

[[record]]
compound = "CCOC(=O)C(C)Sc1nc(-c2cccs2)ccc1C#N (stereo not drawn)"
meas_value = 4.31

[[record]]
compound = "Cc1cc(=O)oc(C)c1C(=O)NCC(C)NC(=O)c1c(C)cc(=O)oc1C (stereo not drawn)"
meas_value = 20.8

[[record]]
compound = "CC(=O)N(Cc1ccccc1)c1ccc(C(=O)O)cc1"
meas_value = 18

[[record]]
compound = "COc1ccc(CC(=O)Nc2cccc(-c3nnc(-c4ccco4)o3)c2)cc1"
meas_value = 0.83

[[record]]
compound = "COc1cc(=O)[nH]c(=O)n1CC(=O)c1ccccc1"
meas_value = -0.879

[[record]]
compound = "Cc1ccc(-c2nn(C)c(=O)c3ccccc23)cc1CNC(=O)CSc1nc2ccccc2o1"
meas_value = 22.8

[[record]]
compound = "O=C(O)c1ccnc(C(=O)O)c1"
meas_value = 24.1

[[record]]
compound = "N#Cc1c(NCCN)nc(NCc2ccccc2)c2c1CCN(Cc1ccccc1)C2"
meas_value = 15.7

[[record]]
compound = "COc1ccc(/C(O)=C2/C(=O)C(=O)N(c3nc(C)c(C)s3)C2c2ccco2)cc1 (stereo not drawn)"
meas_value = 0.492

[[record]]
compound = "COc1ccc(Nc2nnc(C)c3ccccc23)cc1C(N)=O"
meas_value = -4.27

[[record]]
compound = "COCCCn1cnc2c(c1=O)c1nc3ccccc3nc1n2CCc1ccccc1"
meas_value = 12.1

[[record]]
compound = "Cc1cccc(NC(=O)c2cc(N3CCOCC3)nc3ccccc23)c1"
meas_value = -4.1

[[record]]
compound = "Cc1cc(=O)oc2c(CN3CCC(C)CC3)c(O)c(Cl)cc12"
meas_value = -2.21

[[record]]
compound = "O=c1c2c3c(sc2nc2n1CCCS2)CCCC3"
meas_value = 73.3

[[record]]
compound = "NC(=O)C1CCN(C2OC(=O)c3ccccc32)CC1 (stereo not drawn)"
meas_value = 33.2

